- MEASUREMENT_NOTES: BET inhibitor-based combinations targeting novel dependencies in MECOM-rearranged (r) AML: HNT-34 cell line (AID 2202234); note: nearly all actives have a fitted effect of over 35% in size; note: potency is the fitted concentration of half-maximal effect
- EXPERIMENTAL_CONDITIONS: HNT-34 AML viability, CellTiter-Glo luminescence, 48 h; series mostly up to 46 µM
Records with an inconclusive call do not appear. The source made the active and inactive calls. Calls come from the whole dose curve; as a rule, active = well fitted inhibition curve with a large enough effect; inconclusive = small, poorly fitted or top-dose-only effect; inactive = no such curve, though single readings can be large or run the other way.

MOLECULE	Potency
CN(C)CCN1C(=O)c2cccc3cc(NC(N)=O)cc(c23)C1=O	8.33 µM (active)
Cc1ccc(-n2nc(C(C)(C)C)cc2NC(=O)NCc2cc(F)ccc2Oc2ccc3c(cnn3CCO)c2)cc1	0.296 µM (active)
CC[C@H]1OC(=O)[C@H](C)[C@@H](O[C@H]2C[C@@](C)(OC)[C@@H](O)[C@H](C)O2)[C@H](C)[C@@H](O[C@@H]2O[C@H](C)C[C@H](N(C)C)[C@H]2O)[C@](C)(O)C[C@@H](C)C(=O)[C@H](C)[C@@H](O)[C@]1(C)O	inactive
O=C(Nc1cc(Oc2cc(F)c(NC(=O)C3(C(=O)Nc4ccc(F)cc4)CC3)cc2F)ccn1)C1CC1	7.42 µM (active)
COc1cc([C@@H]2c3cc4c(cc3[C@@H](O[C@@H]3O[C@@H]5CO[C@@H](C)O[C@@H]5[C@H](O)[C@@H]3O)[C@H]3COC(=O)[C@H]23)OCO4)cc(OC)c1O	1.48 µM (active)
CN(C)CCOc1ccc(-c2nc(-c3ccc4c(c3)CC/C4=N\O)c(-c3ccncc3)[nH]2)cc1	14.8 µM (active)
CN1CCN(C(=O)c2ccc(-c3ccc4c(C=O)c(O)ccc4c3)s2)CC1	16.6 µM (active)
Cc1onc(-c2ccccc2)c1-c1ccc(S(N)(=O)=O)cc1	inactive
O=C1CC(c2c[nH]c3ccc(F)cc23)C(=O)N1 (centres undefined)	inactive
Nc1cccc2c1CN([C@H]1CCC(=O)NC1=O)C2=O	1.18 µM (active)
CN1CCC(c2c(O)cc(O)c3c(=O)cc(-c4ccccc4Cl)oc23)C1CO (centres undefined)	0.833 µM (active)
COc1cc(C(C)C)c2c(c1)S(=O)(=O)N(COc1cc(=O)n3cccc(OCCN4CCCCC4)c3n1)C2=O	20.9 µM (active)
COc1cc2ncnc(Nc3ccc(O)c(Br)c3)c2cc1OC	5.25 µM (active)
C=C[C@H]1CN2CCC1C[C@@H]2C(O)c1ccnc2ccc(OC)cc12 (some centres undefined)	inactive
